FYI, the data here is from patent US20130045933A1.

Tested on: OVCAR-3
experimentalProtocol: Cytotoxicity IC50 experiments, XTT kit, 24 h incubation
Type: cell-based
conditionDescription: 24 h incubation, XTT; read-out: IC-50 values after 24 h incubation, OVCAR-3
endpointName: IC50 (µM)
# unit: µM | format: bare number

Problem: State its IC50: CC1O[C@H](OCc2cc(O)c3c(c2)C(=O)c2cccc(O)c2C3=O)CC(N)[C@H]1O (stereo partly shown) [AEG 14]
Solution: 6.4

Problem: State its IC50: CC1O[C@@H](OCc2cc(O)c3c(c2)C(=O)c2cccc(O)c2C3=O)CC(N)[C@H]1O (stereo partly shown) [AEG 15]
Solution: 15.7

Problem: State its IC50: CC1O[C@@H](OCc2cc(O)c3c(c2)C(=O)c2cccc(O)c2C3=O)CC(N)[C@H]1O (stereo partly shown) [AEG 13]
Solution: 5.2

* * *

System: NAR cells
experimentalProtocol: Cytotoxicity IC50 experiments, XTT kit, 24 h incubation
conditionDescription: 24 h, read-out: IC-50 values after 24 h incubation, NAR, 24 h incubation, XTT; DOX resistant, P-gp overexpressing
pIC50: −log10 of the molar value.
endpointName: pIC50

Problem: State its pIC50: `O=C1c2cccc(O)c2C(=O)c2c(O)cc(CO)cc21`
Solution: < 4.00

Problem: State its pIC50: COc1cccc2c1C(=O)c1c(O)c3c(c(O)c1C2=O)C[C@@](O)(C(=O)CO)C[C@@H]3O[C@H]1C[C@H](N)[C@H](O)[C@H](C)O1 [DOX, doxorubicin, reference compound]
Solution: < 4.00
